Where do the numbers come from? From patent US20220162191A1.

- tested_on: UniProtKB Q16552
- assay_name: IL-8 release assay in human epithelial keratinocytes adult (HEKa)
- experimental_setup: 3 ng/ml human IL-17AA + 10 ng/ml human TNFalpha, 68-72 h, IL-8 by HTRF, read-out: Rel EC50 L-8 release assay
pEC50: −log10 of the molar value.
This listing pairs compounds with measured pEC50.

Guide cases for pEC50, answers given:
Query string: // lookup pEC50 for CNC1CN(c2cc(-c3ccc(Cl)c(CC(NC(=O)c4ccnn4C)C(=O)Nc4ccc(-c5cncn5C)cc4)c3)ccn2)C1 (stereo not shown)
Result string: 6.00 to 7.00

Query string: // lookup pEC50 for `Cc1ncn(C)c1-c1ccc(NC(=O)[C@H](Cc2cc(-c3ccc(=O)n(C(C)C)c3)ccc2Cl)NC(=O)c2ccnn2C)cc1`
Result string: 6.00 to 7.00

Query string: // lookup pEC50 for `CN1CCOC[C@@H]1c1cccc(-c2ccc(Cl)c(C[C@H](NC(=O)c3ccnn3C)C(=O)Nc3ccc(-c4cncn4C)cc3)c2)c1`
Result string: 6.00 to 7.00

Query string: // lookup pEC50 for Cc1cc(-c2ccc(Cl)c(CC(NC(=O)c3ccnn3C)C(=O)Nc3ccc(-c4nncn4C)cc3)c2)ccc1C#N (stereo not shown)
Result string: < 6.00

Query string: // lookup pEC50 for `Cc1n[nH]c(C)c1-c1ccc(NC(=O)[C@@H](NC(=O)C2(F)CC2)[C@@H]2CCc3ccc(-n4cnc(C(C)C)c4)cc32)cc1`
Result string: 6.00 to 7.00

Query string: // lookup pEC50 for Cc1n[nH]cc1-c1ccc(NC(=O)C(NC(=O)OC2CC2)C(c2ccccc2)c2cccc(-c3ccc(=O)n(C(C)C)c3)c2)cc1 (single isomer, unassigned; diastereomer 4) [Example 245]
Result string: > 7.00

***
Query string: // lookup pEC50 for `Cc1n[nH]c(C)c1-c1ccc(NC(=O)[C@@H](NC(=O)C2(F)CC2)[C@@H]2CCc3ccc(-c4ccnc(N5CCNCC5)c4)cc32)cc1`
Result string: > 7.00

Query string: // lookup pEC50 for `Cc1n[nH]c(C)c1-c1ccc(NC(=O)[C@H](Cc2cc(-c3cnn(C)c3C)ccc2Cl)NC(=O)C2(F)CC2)cc1`
Result string: 6.00 to 7.00

Query string: // lookup pEC50 for `CN1CCN(c2cc(-c3ccc(Cl)c(C[C@H](NC(=O)c4ccnn4C)C(=O)Nc4ccc(-c5cncn5C)cc4)c3)ccn2)CC1`
Result string: 6.00 to 7.00

Query string: // lookup pEC50 for `Cc1n[nH]c(C)c1-c1ccc(NC(=O)[C@H](Cc2cc(-c3ccc(=O)n(C(C)C)c3)ccc2Cl)NC(=O)c2ccnn2C)cc1O`
Result string: > 7.00

---

- tested_on: human IL-17AA (Homo sapiens, UniProt Q16552)
- Sequence (Q16552 24-155): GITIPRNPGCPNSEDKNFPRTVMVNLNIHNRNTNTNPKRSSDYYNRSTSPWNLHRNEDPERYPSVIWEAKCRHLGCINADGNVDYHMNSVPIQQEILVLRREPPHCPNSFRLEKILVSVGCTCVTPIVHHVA
- Sequence (Q16552 24-155): as above
- assay_name: IL-8 release assay in human epithelial keratinocytes adult (HEKa)
- experimental_setup: 3 ng/ml human IL-17AA + 10 ng/ml human TNFalpha, 68-72 h, IL-8 by HTRF, read-out: Rel EC50 L-8 release assay
assay_endpoint: EC50

Query string: // lookup EC50 for `Cc1n[nH]c(C)c1-c1ccc(NC(=O)[C@@H](NC(=O)c2ccnn2C)[C@@H]2CCCc3ccc(-c4cccc(CN5CCC5)c4)cc32)cc1`
Result string: < 100 nM

Query string: // lookup EC50 for `CC(C)COC(=O)N[C@@H](Cc1cc(-c2ccc(=O)n(C(C)C)c2)ccc1Cl)C(=O)Nc1ccc(-c2nncn2C)cc1`
Result string: 100 to 1000 nM

***
Query string: // lookup EC50 for CC(C)n1cc(-c2cccc(C(c3ccccc3)C(NC(=O)c3ccnn3C)C(=O)Nc3ccc(-c4cncn4C)cc3)c2)ccc1=O (single isomer, unassigned) [Example 230]
Result string: 100 to 1000 nM
